The reported numbers originate from patent US12227501B2.

Biological target: human CSNK1A1 (Homo sapiens (Human), UniProt P48729)
Sequence (P48729 whole entry): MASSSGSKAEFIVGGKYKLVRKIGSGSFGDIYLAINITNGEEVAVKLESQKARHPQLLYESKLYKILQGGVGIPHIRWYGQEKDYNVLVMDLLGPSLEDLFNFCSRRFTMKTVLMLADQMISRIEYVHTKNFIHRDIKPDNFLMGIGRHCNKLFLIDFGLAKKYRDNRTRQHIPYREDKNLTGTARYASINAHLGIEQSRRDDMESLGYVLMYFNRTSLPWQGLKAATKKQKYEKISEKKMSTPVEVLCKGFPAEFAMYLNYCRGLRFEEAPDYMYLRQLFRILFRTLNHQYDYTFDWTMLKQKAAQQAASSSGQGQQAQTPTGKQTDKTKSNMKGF
Test: CSNK1A1 Assay 2 (ADP-Glo, 1 μM ATP)
Format: biochemical
Conditions: substrate biotin-Ahx-KRRRAL-pS-VASLPGL, read-out: CSNK1A1 Assay 2 IC50 [mol/l] (median)
measured.property: IC50 (nM)
Give a bare numeral; the unit nM is implied.

Exam item: State the measured IC50 (human CSNK1A1 (Homo sapiens (Human), UniProt P48729)) of CN1C(=O)c2c([nH]c(-c3ccnc(NC(=O)Cc4ccc(F)cc4)c3)c2Nc2ccccc2)CC1(C)C
Marked response: 4.82

Exam item: // fetch IC50; item: CC1Cc2[nH]c(-c3ccnc(NC(=O)Cc4ccncc4)c3)c(Nc3ccccc3)c2C(=O)N1C (single isomer, unassigned; (-)) [Example 99] ; system: human CSNK1A1 (Homo sapiens (Human), UniProt P48729)
Marked response: 3.78

Exam item: // fetch IC50 for CC1Cc2[nH]c(-c3ccnc(NC(=O)C(CC(F)F)c4ccc(F)cc4)c3)c(Nc3ccccc3F)c2C(=O)N1C (single isomer, unassigned; (+)) [Example 108] ; system: human CSNK1A1 (Homo sapiens (Human), UniProt P48729)
Marked response: 3.27

Exam item: Write down the reported IC50 (system: human CSNK1A1 (Homo sapiens (Human), UniProt P48729)) of CC1(C)Cc2[nH]c(-c3ccnc(NC(=O)C(CN)c4ccc(F)cc4)c3)c(Nc3ccccc3)c2C(=O)N1 (racemic) [Example 139]
Marked response: 3.21

Exam item: Provide human CSNK1A1 (Homo sapiens (Human), UniProt P48729) IC50 reading for CC1Cc2[nH]c(-c3ccnc(NC(=O)Cc4ccncc4)c3)c(Nc3ccccc3)c2C(=O)N1C (racemic) [Example 97] .
Marked response: 4.4

Exam item: Please indicate recorded IC50 of O=C(Cc1ccc(F)cc1)Nc1cc(-c2[nH]c3c(c2Nc2cccc(F)c2Cl)C(=O)NCC3)ccn1 measured with human CSNK1A1 (Homo sapiens (Human), UniProt P48729).
Marked response: 2.57

Exam item: # return IC50 for O=C(Cc1ccc(F)cc1)Nc1cc(-c2[nH]c3c(c2Nc2ccccc2)C(=O)NC(C(F)(F)F)C3)ccn1 (racemic) , test system: human CSNK1A1 (Homo sapiens (Human), UniProt P48729)
Marked response: 3.52
